- System: Trichophyton mentagrophytes
- Assay notes: Antifungal activity on Sabouraud agar medium, MIC and FIC index (Test Examples 1 and 2)
- Type: cell-based
- Condition details: Test Example 1; amorolfine hydrochloride + medicine at mass ratio 1:1; cultured 7 days
Where a name gives a salt, the structure may show the parent alone.
Test readout: FIC index obtained by the combination of amorolfine hydrochloride with another medicine
A bare number is all that is needed in reply.

IN: Could you tell me which FIC index obtained by the combination of amorolfine hydrochloride with another medicine is on file for CN(C/C=C/C#CC(C)(C)C)Cc1cccc2ccccc12 [terbinafine hydrochloride] ?
OUT: 0.52

IN: Looking for the measured FIC index obtained by the combination of amorolfine hydrochloride with another medicine of N#C/C(=C1/SCC(c2ccccc2Cl)S1)n1ccnc1 (centres unmarked) , can you help?
OUT: 1.00

IN: Given Cc1cc(C2CCCCC2)n(O)c(=O)c1.NCCO , state its recorded FIC index obtained by the combination of amorolfine hydrochloride with another medicine.
OUT: 1.0

IN: Query: FIC index obtained by the combination of amorolfine hydrochloride with another medicine; subject: Cc1cccc(N(C)C(=S)Oc2ccc3ccccc3c2)c1 [Tolnaftate]
OUT: 1.25

IN: Which FIC index obtained by the combination of amorolfine hydrochloride with another medicine reading was recorded for the compound CN(Cc1ccc(C(C)(C)C)cc1)Cc1cccc2ccccc12.Cl [butenafine hydrochloride] ?
OUT: 0.49

Source: patent US20050113371A1
